All values here come from the supplement of paper PMC4466140.

# tested.system: SpLsb1
# test.details: SPOT peptide array binding signal intensity (averaged, normalized) (arbitrary units (background-subtracted, floor 0; scale differs between SH3 domains)); higher = stronger binding of the SH3 domain to the peptide
Hi all, reminder that labels come from SPOT peptide array binding signal intensity, split as class 0: < 10; class 1: ≥ 10 and < 70; class 2: ≥ 70

[[record]]
binder = "SKSRLLIELPEGFFT"
class_name = "class 0"

[[record]]
binder = "VPVAPPPPPASLGQS"
class_name = "class 0"

[[record]]
binder = "PSRRDSLSIPRAVDA"
class_name = "class 0"

[[record]]
binder = "QHQQRQPKRPKRYSL"
class_name = "class 2"

[[record]]
binder = "NRLRKRLNLPSEISI"
class_name = "class 2"


Query: State the class of the binder shown: GAGERPRLVPRPINV
Response: class 2

Query: Form: Item = RKNRAPPQRPRFNRE ; Class = ?
Response: class 2
